System: Ruminococcus gnavus DSM 108212
Assay: fold change of 2-Phenylethylamine concentration vs plate DMSO controls (fold change (ratio)); higher = more amine produced, active = hit call of the paper (significant change in both replicates, either direction)
Conditions: incubation time: 27 h, anaerobic, 37 °C
property: fold change of 2-Phenylethylamine concentration
Form rule: numeric answer, no unit written next to it.

Consider the worked cases shown below.
[[record]]
molecule = "CCN(Cc1ccncc1)C(=O)C(CO)c1ccccc1 (stereo not drawn) [Tropicamide] (20 µM)"
measurednumber = 0.959

[[record]]
molecule = "CCOC(=O)O[C@]1(C(=O)OCCl)CC[C@H]2[C@@H]3CCC4=CC(=O)C=C[C@]4(C)[C@H]3[C@@H](O)C[C@@]21C [Loteprednol etabonate] (20 µM)"
measurednumber = 1.02

[[record]]
molecule = "O=c1cc(-c2ccc(O)c(O)c2)oc2cc(O)cc(O)c12 [Luteolin] (20 µM)"
measurednumber = 1.08


Consider the molecule shown here: COC(=O)[C@H](Cc1ccccc1)NC(=O)[C@H](CC(=O)O)NCCC(C)(C)C [Neotame] (50 µM) What is its recorded fold change of 2-Phenylethylamine concentration?
1.02

Please report the recorded fold change of 2-Phenylethylamine concentration for CC(=O)Nc1cccc(O)c1 [Metacetamol] (20 µM) .
0.962

Return reported fold change of 2-Phenylethylamine concentration; argument: CN1c2cc(O)c(N=NC(N)=O)cc2CC1S(=O)(=O)O (stereo not drawn) [Carbazochrome sodium sulfonate] (20 µM)
1.21

Which fold change of 2-Phenylethylamine concentration value belongs to OC[C@@H](O)[C@@H](O)[C@@H](O)[C@@H](O)CO [Allitol] (50 µM) ?
0.932

So what does the record say about fold change of 2-Phenylethylamine concentration for NC[C@H]1O[C@H](O[C@H]2[C@H](O)[C@@H](O[C@H]3O[C@H](CO)[C@@H](O)[C@H](N)[C@H]3O)[C@H](N)C[C@@H]2N)[C@H](N)C[C@@H]1O [Tobramycin] (20 µM) ?
0.941

====

fold change of Histamine concentration by entry:
System: Klebsiella aerogenes DSM 30053
Assay: fold change of Histamine concentration vs plate DMSO controls (fold change (ratio)); higher = more amine produced, active = hit call of the paper (significant change in both replicates, either direction)
Details: incubation time: 27 h, anaerobic, 37 °C

Observe how each entry below is paired with its result.
[[record]]
compound = "Cn1c(=O)c2[nH]cnc2n(C)c1=O [Aminophylline] (20 µM)"
property = "fold change of Histamine concentration"
result = "0.965 (inactive)"

[[record]]
compound = "C[C@]12CCC(=O)C=C1CC[C@@H]1[C@@H]2[C@@H](O)C[C@@]2(C)[C@H]1CC[C@]2(O)C(=O)CO [Hydrocortisone] (20 µM)"
property = "fold change of Histamine concentration"
result = "1.04 (inactive)"

[[record]]
compound = "OC(Cn1cncn1)(Cn1cncn1)c1ccc(F)cc1F [Fluconazole] (20 µM)"
property = "fold change of Histamine concentration"
result = "0.956 (inactive)"


Please report the recorded fold change of Histamine concentration for CCCCC1(COC(=O)CCC(=O)O)C(=O)N(c2ccccc2)N(c2ccccc2)C1=O [Suxibuzone] (20 µM) .
0.877 (inactive)

====

System: Ruminococcus gnavus DSM 108212
Assay: growth (OD595) fold change vs plate DMSO controls (fold change (ratio)); higher = more growth
Details: incubation time: 27 h, anaerobic, 37 °C
Structures can show the parent of a compound that is named as a salt.
Measured growth by item
When you answer, write just the number.

See these solved cases before continuing.
[[record]]
compound = "COc1cc(C)c(/C=C/C(C)=C/C=C/C(C)=C/C(=O)O)c(C)c1C [Acitretin] (20 µM)"
experimentaltarget = "Ruminococcus gnavus DSM 108212"
measurednumber = 1.09

[[record]]
compound = "Cn1c(=O)cc(N2CCC[C@@H](N)C2)n(Cc2ccccc2C#N)c1=O [Alogliptin benzoate] (20 µM)"
experimentaltarget = "Ruminococcus gnavus DSM 108212"
measurednumber = 1.02

[[record]]
compound = "CN(C)CCc1c[nH]c2ccc(Cn3cncn3)cc12 [Rizatriptan benzoate] (20 µM)"
experimentaltarget = "Ruminococcus gnavus DSM 108212"
measurednumber = 0.996

[[record]]
compound = "CC[N+](C)(C)c1cccc(O)c1 [Edrophonium chloride] (20 µM)"
experimentaltarget = "Ruminococcus gnavus DSM 108212"
measurednumber = 1.17

[[record]]
compound = "CCN(CC)C(=O)Nc1ccc(OCC(O)CNC(C)(C)C)c(C(C)=O)c1 (stereo unspecified) [Celiprolol hydrochloride] (20 µM)"
experimentaltarget = "Ruminococcus gnavus DSM 108212"
measurednumber = 0.712


Can you share its growth? I mean this compound: COc1cccc2c1C(=O)c1c(O)c3c(c(O)c1C2=O)C[C@@](O)(C(=O)CO)C[C@@H]3O[C@H]1C[C@H](N)[C@@H](O)[C@H](C)O1 [Epirubicin hydrochloride] (20 µM)
0.386

What does the record list as growth for Clc1ccc2c(c1)CCc1cccnc1C2=C1CCNCC1 [Desloratadine] (20 µM) ?
0.972

Please look up its growth: N[C@@H](Cc1c[nH]c2ccccc12)C(=O)O [L-Tryptophan] (20 µM)
1.19

Item CN(C)c1ccc(O)c2c1C[C@H]1C[C@H]3[C@H](N(C)C)C(=O)C(C(N)=O)=C(O)[C@@]3(O)C(=O)C1=C2O [Minocycline hydrochloride] (20 µM) has what recorded growth?
0.158

# input compound: O=c1[nH]c(=O)n([C@H]2C[C@H](O)[C@@H](CO)O2)cc1F [Floxuridine] (20 µM) ; wanted: its growth
1.41

Dear colleague, I am looking for the recorded growth of the following compound: CCOc1cc(N)c(Cl)cc1C(=O)NCC1CN(Cc2ccc(F)cc2)CCO1 (stereo unspecified) [Mosapride] (20 µM)
1.08

Which growth value belongs to CCCCc1cc2ccccc2c(OCCN(C)C)n1 [Dimethisoquin hydrochloride] (20 µM) ?
0.962

What does the data say about its growth? Entry: COc1ccc(CNc2nc(N3CCC[C@H]3CO)ncc2C(=O)NCc2ncccn2)cc1Cl [Avanafil] (20 µM)
0.992

Entry CN(C)CCN(Cc1ccccc1)c1ccccn1 [Tripelennamine hydrochloride] (20 µM) has what growth?
0.946

Fill in: growth of CO/N=C(\C(=O)N[C@@H]1C(=O)N2C(C(=O)OCOC(=O)C(C)(C)C)=C(/C=C\c3scnc3C)CS[C@H]12)c1csc(N)n1 [Cefditoren Pivoxil] (20 µM) is ___
0.996

Report growth for COc1ccccc1N1CCN(CC(O)COc2cccc3ccccc23)CC1 (stereo unspecified) [Naftopidil dihydrochloride] (20 µM) please.
0.961
